Tested on: Rhizoctonia solani
Assay: Pea test in soil inoculated with Rhizoctonia solani (Example 3); further: key: 4: white roots, without fungus necroses; 3: white roots, slight fungus necroses; 2: brown roots, more intense fungus necroses; 1: severe fungus necroses, roots rotted
Format: in vivo
Details: 20 mg active ingr. per liter of soil; 3 weeks
I'd appreciate it if you could supply Root evaluation (1-4) values for the items below.
Keep it simple and answer with nothing but the number.

Query string: Please give the measured Root evaluation (1-4) for this molecule: C[S+]([O-])c1nnc(C(Cl)(Cl)Cl)s1 (stereo not drawn)
Result string: 4

Query string: Please give the measured Root evaluation (1-4) for this molecule: CS(=O)(=O)c1nnc(C(Cl)(Cl)Cl)s1
Result string: 4

Query string: Please give the measured Root evaluation (1-4) for this molecule: CCCS(=O)(=O)c1nnc(C(Cl)(Cl)Cl)s1
Result string: 3

Query string: Please give the measured Root evaluation (1-4) for this molecule: CS(=O)(=O)c1nnc(C(Cl)Cl)s1
Result string: 4

Query string: Please give the measured Root evaluation (1-4) for this molecule: C[S+]([O-])c1nnc(C(Cl)Cl)s1 (stereo not drawn)
Result string: 1

Query string: Please give the measured Root evaluation (1-4) for this molecule: CC[S+]([O-])c1nnc(C(Cl)(Cl)Cl)s1 (stereo not drawn)
Result string: 4
